target under test: T1, human Tom70 (residues 108–608) (human, UniProt O94826 108-608)
T1 chain: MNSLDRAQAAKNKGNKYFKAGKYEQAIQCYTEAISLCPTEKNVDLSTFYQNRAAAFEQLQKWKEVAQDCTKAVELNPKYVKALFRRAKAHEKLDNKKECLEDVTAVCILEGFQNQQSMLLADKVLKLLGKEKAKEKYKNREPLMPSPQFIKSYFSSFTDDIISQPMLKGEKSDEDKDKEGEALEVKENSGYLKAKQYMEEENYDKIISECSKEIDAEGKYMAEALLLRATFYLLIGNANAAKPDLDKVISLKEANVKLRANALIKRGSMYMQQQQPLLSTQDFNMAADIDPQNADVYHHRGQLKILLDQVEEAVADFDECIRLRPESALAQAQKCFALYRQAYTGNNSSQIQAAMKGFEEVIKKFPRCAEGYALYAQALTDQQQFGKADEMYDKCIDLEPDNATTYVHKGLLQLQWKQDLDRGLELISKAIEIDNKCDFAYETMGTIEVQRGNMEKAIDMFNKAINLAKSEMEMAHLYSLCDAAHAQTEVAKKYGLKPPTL
measurement notes: ITC; run 3
Where no end group is shown, it is not given here.
test readout: Kd (µM)
Answer in µM, number only, no unit symbol.

Can you look up the measured Kd of YDTSRMEEVD-OH [Hsp90_(EEVD) peptide] for me? 11.9
